Test system: MCF7 breast
PROCEDURE_SUMMARY: NCI tumour cell line growth inhibition, 48 h
OBSERVED_PROPERTY: TGI

These solved cases illustrate the format of a correct answer.
[[record]]
molecule = "COc1ccc(-c2nn(-c3ccc(NC(=O)c4ccc(Cl)c(Cl)c4)cc3)cc2-c2ccncc2)cc1Cl"
observed_property = "TGI"
observed_result = "> 50 µM"

[[record]]
molecule = "CC(=O)c1[nH]c(NCc2ccccc2)c(C(=S)Nc2ccccc2)c1N"
observed_property = "TGI"
observed_result = "37.2 µM"

[[record]]
molecule = "CC(=O)Oc1ccc2c(C)cc(=O)oc2c1OC(C)=O"
observed_property = "TGI"
observed_result = "> 100 µM"

[[record]]
molecule = "O=C1Nc2ccccc2/C1=N\\[O-].O=C1Nc2ccccc2/C1=N\\[O-].[Cu+2]"
observed_property = "TGI"
observed_result = "> 100 µM"

[[record]]
molecule = "COc1ccc2[nH]cc(C3(c4c[nH]c5ccc(OC)cc45)C(=O)Nc4ccc(F)cc43)c2c1"
observed_property = "TGI"
observed_result = "10.1 µM"


Q: Data request, read-out TGI, for [Cl][Hg][c]1cc[c]([Hg][Cl])o1
Result: 8.84 µM

Q: Data request, read-out TGI, for CCCCCCOC(=O)/C=C/[C@]1(CO)C/C(=C/CC(C(C)C)C(C)C)C(=O)O1
Result: 30.4 µM

Q: Data request, read-out TGI, for CC1OC(OC2C(O)COC(OC3C(C)OC(OC4C(OC(=O)[C@]56CCC(C)(C)C[C@@H]5C5=CCC7[C@@]8(C)C[C@H](O)[C@H](OC9OC(CO)C(O)C(O)C9O)[C@@](C)(CO)[C@@H]8CC[C@@]7(C)[C@]5(C)CC6)OCC(O)C4O)C(O)C3OC3OCC(O)(CO)C3O)C2O)C(O)C(O)C1O (stereo partly specified)
Result: > 67.9 µM

Q: Data request, read-out TGI, for O=C1C(c2c(O)[nH]c3ccc(F)cc23)=Nc2ccccc21
Result: > 100 µM

Q: Data request, read-out TGI, for CC1CCC(C(C)C)C(OC(=O)NCn2cc(-c3ccccc3)nn2)C1 (stereo unspecified)
Result: > 100 µM

Q: Data request, read-out TGI, for O=c1[nH]nc(Cc2ccccc2)n1/N=C/c1ccccc1O
Result: > 100 µM

Q: Data request, read-out TGI, for Cc1ccc(NC(=O)CC2CC2)cc1-c1ccc(C(=O)NCC2CC2)cc1
Result: > 25 µM

Q: Data request, read-out TGI, for CN(C)CC[PH+](c1ccccc1)c1ccccc1.CN(C)CC[PH+](c1ccccc1)c1ccccc1.[Cl-].[Pd+2]
Result: > 100 µM

Q: Data request, read-out TGI, for Cc1nc2c(nc1C)-c1[nH]c3c(c1C(=O)C2=O)CCCC3=O
Result: 2.98 µM

###

Tested on: K-562 leukemia
PROCEDURE_SUMMARY: NCI tumour cell line growth inhibition, 48 h; in the data active means GI50 below about 0.43 µM; inactive means the rest
Write down one outcome, taken from Yes for active, No for inactive

Example entries begin here.
[[record]]
compound = "NCCNc1c2c(c(NCCN)c3[nH]ccc13)C(=O)c1ccccc1C2=O"
target_under_test = "K-562 leukemia"
class_label = "Yes"

[[record]]
compound = "COc1ccc2[nH]cc(C3(c4c[nH]c5ccc(OC)cc45)C(=O)Nc4ccc(F)cc43)c2c1"
target_under_test = "K-562 leukemia"
class_label = "No"


Q: Record lookup: outcome of this test for CC[C@H]1[C@@H]2C=C[C@@H]3[C@H]4C/C=C\C(=O)NCCC[C@@H]5NC(=O)/C(=C(O)/C=C/[C@@H]4C[C@@H]3[C@H]2C[C@H]1C)C5=O ?
Result: No

Q: Record lookup: outcome of this test for Cc1nn(-c2ccc(Cl)cc2)c2nc3c(nc12)C(=O)c1ccccc1-3 ?
Result: No

Q: Record lookup: outcome of this test for C=C(Cl)C(Br)(CCl)CCC(Br)C(C)(C)Cl (stereo not given) ?
Result: No

Q: Record lookup: outcome of this test for COc1cc(-n2cc(-c3ccc(F)cc3)[nH]c2=O)cc(OC)c1OC ?
Result: No

Q: Record lookup: outcome of this test for CCSc1ncnc2c1ncn2C1OC(CO)C(O)C1O (stereo not given) ?
Result: No

Q: Record lookup: outcome of this test for COc1ccc(-c2nc3ccc(-c4nc5ccc(N6CCN(c7ccccc7)CC6)cc5[nH]4)cc3[nH]2)cc1OC ?
Result: Yes

Q: Record lookup: outcome of this test for Clc1ccc2[nH]cc(-c3nnnn3-c3ccccc3)c2c1 ?
Result: No

Q: Record lookup: outcome of this test for CNCC#Cc1c(F)ccc2c1/C(=C/c1[nH]ccc1OC)C(=O)N2 ?
Result: No
